Target: DNA-PK(h) (Homo sapiens)
Experiment: Evaluation of inhibitory activity against DNA-PK (HTRF kinase assay, GST-cMyc-p53 substrate)
Format: biochemical
Settings: compound concentration 0.1 μM; read-out: EXP_VALUE(% Inhibition) DNA-PK(h) 0.1 μM

{"columns": ["compound structure", "target", "endpoint unit", "inhibition at 0.1 µM"],
 "data": [
  ["C[C@H](Nc1ncnc2[nH]ccc(=O)c12)c1c(Cl)c2cccc(-c3ccc4c(c3)NC(=O)C(C)(C)O4)c2c(=O)n1-c1ccccc1", "DNA-PK(h) (Homo sapiens)", "%", 36],
  ["C[C@H](Nc1ncnc2[nH]ccc(=O)c12)c1c(Cl)c2cccc(-c3ccc(C(=O)N(C)C)cc3)c2c(=O)n1-c1ccccc1", "DNA-PK(h) (Homo sapiens)", "%", 96],
  ["Cc1cncc(-c2cccc3c(Cl)c([C@H](C)Nc4ncnc5[nH]ccc(=O)c45)n(-c4ccccc4)c(=O)c23)c1", "DNA-PK(h) (Homo sapiens)", "%", 101],
  ["C[C@H](Nc1ncnc2[nH]ccc(=O)c12)c1c(Cl)c2cccc(-c3ccc4[nH]c(=O)[nH]c4c3)c2c(=O)n1-c1ccccc1", "DNA-PK(h) (Homo sapiens)", "%", 95],
  ["Cc1ccc(F)cc1-c1cccc2c(Cl)c([C@H](C)Nc3ncnc4[nH]ccc(=O)c34)n(-c3ccccc3)c(=O)c12", "DNA-PK(h) (Homo sapiens)", "%", 81]
]}
